experiment: Surface tension in ionic buffer solution; assay type: physicochemical; details: 0.02 normal aqueous potassium nitrate solution at 25° C.
REPORTED ENDPOINT: surface tension (millinewtons per meter)

{"COMPOUND": "CCCCCCCCC(CC(=O)O)C(=O)[O-].[Na+] (stereo not shown) [Monosodium n-octylsuccinate, reference compound]", "REPORTED ENDPOINT": "surface tension", "REPORTED": 26.64}
{"COMPOUND": "CCCCCCCCC(CC(=O)[O-])C(=O)[O-].[Na+].[Na+] (stereo not shown) [Disodium n-octylsuccinate]", "REPORTED ENDPOINT": "surface tension", "REPORTED": 26}
{"COMPOUND": "CCCCCCCCCCC(CC(=O)O)C(=O)[O-].[Na+] (stereo not shown) [Monosodium n-decylsuccinate, reference compound]", "REPORTED ENDPOINT": "surface tension", "REPORTED": 26.32}
{"COMPOUND": "CCCCCCCCCCC(CC(=O)[O-])C(=O)[O-].[Na+].[Na+] (stereo not shown) [Disodium n-decylsuccinate]", "REPORTED ENDPOINT": "surface tension", "REPORTED": 26}
